Tested on: E. coli ATCC 25922
Experiment: Synergy assay, checkerboard method;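 note: growth read as OD600 in microplates, with antibiotics tested across twofold serial dilutions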
Conditions: checkerboard, 5 × 10^5 cfu/ml, 37°C, 20 h; E.coli ATCC 25922; antibiotic alone
Observation type: MIC of antibiotic at brevibacillin 0 mg/L

Sample records with MIC of antibiotic at brevibacillin 0 mg/L:
>  <Chemical structure>
CO[C@H]1/C=C/O[C@@]2(C)Oc3c(C)c(O)c4c(O)c(c(/C=N/N5CCN(C)CC5)c(O)c4c3C2=O)NC(=O)/C(C)=C\C=C\[C@H](C)[C@H](O)[C@@H](C)[C@@H](O)[C@@H](C)[C@H](OC(C)=O)[C@@H]1C

>  <Measured>
4 µg/mL

$$$$
>  <Chemical structure>
NCC[C@H](O)C(=O)N[C@@H]1C[C@H](N)[C@@H](O[C@H]2O[C@H](CN)[C@@H](O)[C@H](O)[C@H]2O)[C@H](O)[C@H]1O[C@H]1O[C@H](CO)[C@@H](O)[C@H](N)[C@H]1O

>  <Measured>
4 µg/mL

$$$$
>  <Chemical structure>
CC[C@H]1OC(=O)[C@H](C)[C@@H](O[C@H]2C[C@@](C)(OC)[C@@H](O)[C@H](C)O2)[C@H](C)[C@@H](O[C@@H]2O[C@H](C)C[C@H](N(C)C)[C@H]2O)[C@](C)(O)C[C@@H](C)CN(C)[C@H](C)[C@@H](O)[C@]1(C)O

>  <Measured>
2 µg/mL

$$$$

Continue with the compound presented below.
Problem: What value of measured MIC of antibiotic at brevibacillin 0 mg/L is listed for CCn1cc(C(=O)O)c(=O)c2ccc(C)nc21 ?
Solution: 2 µg/mL

====

MIC of antibiotic at brevibacillin V 0 mg/L values, listed per item
Tested on: A. baumannii ATCC17978
Assay: Synergy assay, checkerboard method
Conditions: checkerboard, 5 × 10^5 cfu/ml, 37°C, 20 h; A. baumannii ATCC17978; antibiotic alone
Give the quantity in µg/mL, number only.

>  <Chemical structure>
NCC[C@H](O)C(=O)N[C@@H]1C[C@H](N)[C@@H](O[C@H]2O[C@H](CN)[C@@H](O)[C@H](O)[C@H]2O)[C@H](O)[C@H]1O[C@H]1O[C@H](CO)[C@@H](O)[C@H](N)[C@H]1O

>  <Unit annotation>
µg/mL

>  <Measured>
16

$$$$
>  <Chemical structure>
CC[C@H]1OC(=O)[C@H](C)[C@@H](O[C@H]2C[C@@](C)(OC)[C@@H](O)[C@H](C)O2)[C@H](C)[C@@H](O[C@@H]2O[C@H](C)C[C@H](N(C)C)[C@H]2O)[C@](C)(O)C[C@@H](C)CN(C)[C@H](C)[C@@H](O)[C@]1(C)O

>  <Unit annotation>
µg/mL

>  <Measured>
16

$$$$

Problem: Entry under review: CO[C@H]1/C=C/O[C@@]2(C)Oc3c(C)c(O)c4c(O)c(c(/C=N/N5CCN(C)CC5)c(O)c4c3C2=O)NC(=O)/C(C)=C\C=C\[C@H](C)[C@H](O)[C@@H](C)[C@@H](O)[C@@H](C)[C@H](OC(C)=O)[C@@H]1C . Reported MIC of antibiotic at brevibacillin V 0 mg/L?
Solution: 32

Problem: // returns reported MIC of antibiotic at brevibacillin V 0 mg/L for input CCn1cc(C(=O)O)c(=O)c2ccc(C)nc21
Solution: 32

Each recorded value in this set is attributed to paper PMC8245773.
